Hello, the source for this data is patent US20230285405A1, in case you need it.

Each entry below lists one item and its recorded hit_2 value.
# Tested on: OC43
# Assay procedure: Drug screening: OC43 nucleoprotein staining in infected A549-mRuby cells
# Assay type: cell-based, human beta coronavirus OC43
# Experimental context: 10 μM drug, repeat #2
Structures can show the parent of a compound that is named as a salt.
Quick one: just the number, no unit, thanks!

COC(=O)N[C@H](C(=O)N1CCC[C@H]1c1ncc(-c2ccc3c(c2)O[C@@H](c2ccccc2)n2c-3cc3cc(-c4cnc([C@@H]5CCCN5C(=O)[C@@H](NC(=O)OC)C(C)C)[nH]4)ccc32)[nH]1)C(C)C [Elbasvir] : 1
Cc1cc(C(C)(C)C)cc(C)c1CC1=NCCN1 [Xylometazoline HCl] : 1

get_value(item= CC(C)c1nc(CN(C)C(=O)N[C@@H](CCN2CCOCC2)C(=O)N[C@H](CC[C@H](Cc2ccccc2)NC(=O)OCc2cncs2)Cc2ccccc2)cs1 [Cobicistat (GS-9350), Cobicistat] , readout=hit_2) returns 1

* * *

# Tested on: A549-mRuby cells
# Assay procedure: Drug screening: effect on cell growth (cell number day 4 / day 0)
# Experimental context: 10 μM drug, repeat #2
Structures can show the parent of a compound that is named as a salt.
Reported property: Growth_2: number of cells at day 4 divided by number of cells at day 0
Quick one: just the number, no unit, thanks!

Some compounds with recorded Growth_2: number of cells at day 4 divided by number of cells at day 0:
O.O=C(c1ccc(OCCN2CCCCC2)cc1)c1c(-c2ccc(O)cc2)sc2cc(O)ccc12 [Raloxifene HCl] : 5.2
CN(C)CCCN1c2ccccc2Sc2ccccc21 [Promazine hydrochloride] : 4.7
CN1CCC(OC(c2ccccc2)c2ccccc2)CC1 [Diphenylpyraline HCl] : 4.2

Turning now to a further compound:
O=C(O)CCC(=O)O.O=C(O[C@H]1CN2CCC1CC2)N1CCc2ccccc2[C@@H]1c1ccccc1 [Solifenacin succinate] on A549-mRuby cells gives Growth_2: number of cells at day 4 divided by number of cells at day 0 = 5.0

* * *

# Tested on: A549-mRuby cells
# Assay procedure: Drug screening: effect on cell growth (cell number day 4 / day 0)
# Experimental context: 10 μM drug, repeat #1
Where a name gives a salt, the structure may show the parent alone.
Each entry below lists one item and its recorded Growth_1: number of cells at day 4 divided by number of cells at day 0 value.
Quick one: just the number, no unit, thanks!

Some compounds with recorded Growth_1: number of cells at day 4 divided by number of cells at day 0:
COc1cccc(CCc2ccccc2OCC(CN(C)C)OC(=O)CCC(=O)O)c1 (centres unmarked) [Sarpogrelate hydrochloride] : 5.0
CN1[C@@H]2CC[C@H]1C[C@@H](OC(=O)c1c[nH]c3ccccc13)C2 [Tropisetron HCl] : 5.8
CN(C)CCCN1c2ccccc2CCc2ccc(Cl)cc21.O [Clomipramine HCl] : 2.6
CCCCOC(=O)c1ccc(O)cc1 : 3.3
Cc1ccccc1C(OCCN(C)C)c1ccccc1 (centres unmarked) [Orphenadrine Hydrochloride] : 4.6

Turning now to a further compound:
get_value(item= CC[C@H]1OC(=O)[C@H](C)[C@@H](O[C@H]2C[C@@](C)(OC)[C@@H](O)[C@H](C)O2)[C@H](C)[C@@H](O[C@@H]2O[C@H](C)C[C@H](N(C)C)[C@H]2O)[C@](C)(O)C[C@@H](C)CN(C)[C@H](C)[C@@H](O)[C@]1(C)O , readout=Growth_1: number of cells at day 4 divided by number of cells at day 0) returns 4.0
